Assayed system: T1, IL-18 receptor (IL-18Rα and IL-18Rβ) (UniProt Q13478 19-541; O95256 20-599, limits assumed)
T1 sequence (looked up) 1: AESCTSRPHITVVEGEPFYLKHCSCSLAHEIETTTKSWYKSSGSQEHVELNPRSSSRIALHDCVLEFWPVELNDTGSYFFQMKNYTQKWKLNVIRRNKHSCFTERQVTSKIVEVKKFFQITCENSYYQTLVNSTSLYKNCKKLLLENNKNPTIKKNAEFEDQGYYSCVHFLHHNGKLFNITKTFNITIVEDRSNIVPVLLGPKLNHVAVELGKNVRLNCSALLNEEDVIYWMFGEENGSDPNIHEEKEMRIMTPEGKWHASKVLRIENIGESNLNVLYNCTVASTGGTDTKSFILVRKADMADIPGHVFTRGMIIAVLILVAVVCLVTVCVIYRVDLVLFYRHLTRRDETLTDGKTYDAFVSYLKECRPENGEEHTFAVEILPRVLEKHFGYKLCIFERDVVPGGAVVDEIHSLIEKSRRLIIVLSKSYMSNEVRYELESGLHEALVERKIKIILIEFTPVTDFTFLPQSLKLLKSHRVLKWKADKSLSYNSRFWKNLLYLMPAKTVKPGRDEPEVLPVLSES
T1 sequence (looked up) 2: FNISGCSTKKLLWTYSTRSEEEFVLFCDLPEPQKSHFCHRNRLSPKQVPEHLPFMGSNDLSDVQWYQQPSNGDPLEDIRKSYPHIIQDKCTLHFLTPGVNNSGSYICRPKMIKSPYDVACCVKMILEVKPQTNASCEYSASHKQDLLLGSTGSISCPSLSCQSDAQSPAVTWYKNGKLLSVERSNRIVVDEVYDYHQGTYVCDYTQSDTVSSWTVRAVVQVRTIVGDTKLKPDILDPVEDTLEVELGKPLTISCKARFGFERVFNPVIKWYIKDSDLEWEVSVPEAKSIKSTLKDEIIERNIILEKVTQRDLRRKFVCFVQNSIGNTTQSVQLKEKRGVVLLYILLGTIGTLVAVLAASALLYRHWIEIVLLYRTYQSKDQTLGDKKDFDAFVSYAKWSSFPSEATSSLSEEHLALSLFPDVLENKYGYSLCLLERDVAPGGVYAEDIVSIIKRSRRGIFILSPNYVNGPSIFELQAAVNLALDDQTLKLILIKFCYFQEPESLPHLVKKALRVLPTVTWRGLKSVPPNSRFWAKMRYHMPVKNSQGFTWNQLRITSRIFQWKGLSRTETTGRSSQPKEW
Assay text: cell-based or functional assay
# label = Satisfied if EC50 (pM) - BP, HEK-blue re-screening < 0.2 pM else Not satisfied

[Q] Decide: EC50 (pM) - BP, HEK-blue re-screening of IL-18 variant G3Y, E6N, N91Y, R104S (ligand) YFYKLNSKLSVIRNLNDQVLFIDQGNRPLFEDMTDSDMRDNAPRTIFIISMYKDSQPRGMAVTISVKSEKISTLSSENKIISFKEMNPPDYIKDTKSDIIFFQSSVPGHDNKMQFESSSYEGYFLASEKERDLFKLILKKEDELGDRSIMFTVQNED strictly below 0.2 pM?
[A] Satisfied

[Q] Field entry: IL-18 variant G3Q, E6H, D54N, S55I, T63S, N91V (ligand) YFQKLHSKLSVIRNLNDQVLFIDQGNRPLFEDMTDSDMRDNAPRTIFIISMYKNIQPRGMAVSISVKSEKISTLSSENKIISFKEMNPPDVIKDTKSDIIFFQRSVPGHDNKMQFESSSYEGYFLASEKERDLFKLILKKEDELGDRSIMFTVQNED
[A] Not satisfied

[Q] Field entry: IL-18 variant G3E, E6H, R27S, D54A, S55T, T63S, N91F, R104S (ligand) YFEKLHSKLSVIRNLNDQVLFIDQGNSPLFEDMTDSDMRDNAPRTIFIISMYKATQPRGMAVSISVKSEKISTLSSENKIISFKEMNPPDFIKDTKSDIIFFQSSVPGHDNKMQFESSSYEGYFLASEKERDLFKLILKKEDELGDRSIMFTVQNED
[A] Not satisfied

[Q] Field entry: IL-18 variant G3I, E6Q, N91M, R104Y (ligand) YFIKLQSKLSVIRNLNDQVLFIDQGNRPLFEDMTDSDMRDNAPRTIFIISMYKDSQPRGMAVTISVKSEKISTLSSENKIISFKEMNPPDMIKDTKSDIIFFQYSVPGHDNKMQFESSSYEGYFLASEKERDLFKLILKKEDELGDRSIMFTVQNED
[A] Satisfied

[Q] Field entry: IL-18 variant G3I, E6D, D54A, S55F, N91Y, R104H (ligand) YFIKLDSKLSVIRNLNDQVLFIDQGNRPLFEDMTDSDMRDNAPRTIFIISMYKAFQPRGMAVTISVKSEKISTLSSENKIISFKEMNPPDYIKDTKSDIIFFQHSVPGHDNKMQFESSSYEGYFLASEKERDLFKLILKKEDELGDRSIMFTVQNED
[A] Not satisfied

[Q] Field entry: IL-18 variant G3L, E6Q, T63S, N91L, R104T (ligand) YFLKLQSKLSVIRNLNDQVLFIDQGNRPLFEDMTDSDMRDNAPRTIFIISMYKDSQPRGMAVSISVKSEKISTLSSENKIISFKEMNPPDLIKDTKSDIIFFQTSVPGHDNKMQFESSSYEGYFLASEKERDLFKLILKKEDELGDRSIMFTVQNED
[A] Satisfied

[Q] Field entry: IL-18 variant E6G, D54A, S55K, T63S, N91K, Q114R (ligand) YFGKLGSKLSVIRNLNDQVLFIDQGNRPLFEDMTDSDMRDNAPRTIFIISMYKAKQPRGMAVSISVKSEKISTLSSENKIISFKEMNPPDKIKDTKSDIIFFQRSVPGHDNKMRFESSSYEGYFLASEKERDLFKLILKKEDELGDRSIMFTVQNED
[A] Satisfied

[Q] Field entry: IL-18 variant G3L, E6Q, D54Y, S55P, T63S, N91S, R104Q (ligand) YFLKLQSKLSVIRNLNDQVLFIDQGNRPLFEDMTDSDMRDNAPRTIFIISMYKYPQPRGMAVSISVKSEKISTLSSENKIISFKEMNPPDSIKDTKSDIIFFQQSVPGHDNKMQFESSSYEGYFLASEKERDLFKLILKKEDELGDRSIMFTVQNED
[A] Not satisfied

[Q] Field entry: IL-18 variant G3S, E6G, D54V, S55K, T63S, N91Y, R104T (ligand) YFSKLGSKLSVIRNLNDQVLFIDQGNRPLFEDMTDSDMRDNAPRTIFIISMYKVKQPRGMAVSISVKSEKISTLSSENKIISFKEMNPPDYIKDTKSDIIFFQTSVPGHDNKMQFESSSYEGYFLASEKERDLFKLILKKEDELGDRSIMFTVQNED
[A] Not satisfied

[Q] Field entry: IL-18 variant E6D, D54T, S55W, T63S, N91S, R104T (ligand) YFGKLDSKLSVIRNLNDQVLFIDQGNRPLFEDMTDSDMRDNAPRTIFIISMYKTWQPRGMAVSISVKSEKISTLSSENKIISFKEMNPPDSIKDTKSDIIFFQTSVPGHDNKMQFESSSYEGYFLASEKERDLFKLILKKEDELGDRSIMFTVQNED
[A] Not satisfied

[Q] Field entry: IL-18 variant G3Q, E6N (ligand) YFQKLNSKLSVIRNLNDQVLFIDQGNRPLFEDMTDSDMRDNAPRTIFIISMYKDSQPRGMAVTISVKSEKISTLSSENKIISFKEMNPPDNIKDTKSDIIFFQRSVPGHDNKMQFESSSYEGYFLASEKERDLFKLILKKEDELGDRSIMFTVQNED
[A] Satisfied

[Q] Field entry: IL-18 variant G3D, E6Q, R27S, K53R, D54A, S55R, T63S, N91Q (ligand) YFDKLQSKLSVIRNLNDQVLFIDQGNSPLFEDMTDSDMRDNAPRTIFIISMYRARQPRGMAVSISVKSEKISTLSSENKIISFKEMNPPDQIKDTKSDIIFFQRSVPGHDNKMQFESSSYEGYFLASEKERDLFKLILKKEDELGDRSIMFTVQNED
[A] Not satisfied

[Q] Field entry: IL-18 variant G3E, E6G, N91M, R104A (ligand) YFEKLGSKLSVIRNLNDQVLFIDQGNRPLFEDMTDSDMRDNAPRTIFIISMYKDSQPRGMAVTISVKSEKISTLSSENKIISFKEMNPPDMIKDTKSDIIFFQASVPGHDNKMQFESSSYEGYFLASEKERDLFKLILKKEDELGDRSIMFTVQNED
[A] Satisfied
